Values compiled from PubChem BioAssay.

Reported values of composite z-score for individual entries
# procedure.text: small-molecule microarray binders of probe aEGFR, primary screen, biochemical, biotinylated probe, 635/667 nm fluorescence (AID 1097);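 note: probe is a biotinylated anti-EGFR antibody binding compounds printed on slides; score combines fluorescence near 667 nm and signal to noise of each spot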
# condition.context: higher = more signal
Answer with a number only.

O=C1O[C@@H](c2ccccc2)[C@@H](c2ccccc2)N2[C@@H](c3ccc(OCCO)cc3)[C@]3(C(=O)Nc4ccc(C#CCCO)cc43)[C@@H](C(=O)N3CCCCCCC3)[C@H]12
0.249
O=C1C[C@@H](O)[C@@H](O)[C@@H]2[C@@H]3C(=O)N(Cc4ccc5c(c4)OCO5)C(=O)[C@@H]3CC[C@@H]12
0.0414

# context switch: different molecule, same composite z-score
Exercise: Record request: composite z-score value, item CCN(CC)c1ccc(N2CC=CC34O[C@@H]5/C=C\CCC(C)OC(=O)C5[C@H]3C(=O)N(CCCO)[C@@H]4C2=O)cc1 (stereo partly drawn)
Key: -0.27
